# Tested on: M14 melanoma
# assay protocol: NCI tumour cell line growth inhibition, 48 h; in the data active means GI50 below about 0.43 µM; inactive means the rest
Respond using exactly one of the listed classes: y (active), n (inactive)

Completed entries (count: 4):
• CCN(CC)CCOc1c(OC)c(Br)cc2c(C)c(C(=O)OC)oc12 = n
• CCCCN(CC)c1ncnc2ccc(Br)cc12 = n
• Cn1cc(C2=C(c3cn(C)c4cc(N)ccc34)C(=O)NC2=O)c2ccccc21 = n
• CC[C@]1(O)C[C@@H]2CN(CCc3c([nH]c4ccccc34)[C@@](C(=O)OC)(c3cc4c(cc3OC)N(C)[C@H]3[C@@](O)(C(N)=O)[C@H](O)[C@]5(CC)[C@@H]6C[C@@H]6CN6CC[C@]43[C@@H]65)C2)C1 = y

Note: attention shifts to another entry.
Can you look up the reported call for Cc1nn(CNc2ccccc2C(F)(F)F)c(=S)n1/N=C/c1ccc(F)cc1 for me?
n

* * *

# Tested on: RPMI-8226 leukemia
# assay protocol: NCI tumour cell line growth inhibition, 48 h
measured property: TGI

Example molecules with recorded TGI:
* CC1=NOC(=O)C1N=Nc1ccc(Br)c(C)c1 (stereo not drawn) | 40.7 µM
* Cn1c(=O)n(CC2CS2)c2ccccc21 (stereo not drawn) | > 100 µM
* C=C(CCOC)CCC1CCCCC(=C)[C@H]1O (stereo partly drawn) | > 100 µM

Batch request: TGI for each of the following molecules.
1. C[C@]12CC[C@H]3[C@@H](CCC4=C(Br)C(=O)C=C[C@@]43O)[C@@H]1CCC2=O
2. CC1(C)C(=O)C=CC2(C)C1CC(O)C1(C)C2CCC2(C)C(c3ccoc3)OC(=O)C3OC321 (stereo not drawn)
3. C/C(=N/NC(=S)N1CCN(C(=S)N/N=C(/C)c2ccccn2)CC1)c1ccccn1

1. > 100 µM
2. 47.9 µM
3. > 100 µM

I would be grateful if you could provide TGI for each of the following entries.
1. CS(=O)(=O)[O-].CS(=O)(=O)[O-].NC1CCCCC1N.[Pt+4] (stereo not drawn)
2. Clc1ccc2ns[s+]c2c1

1. > 100 µM
2. > 100 µM

* * *

# Tested on: HOP-92 NSCLC
# assay protocol: NCI tumour cell line growth inhibition, 48 h
Could you please report measured TGI for the items listed next?
Numbers only, in µM.

The following compounds have reported results that may help.
• CCC[CH2][Sn]1([CH2]CCC)[O]C(=O)c2ccc(N)cc2[O]1 = 0.988
• COc1ccccc1NC(=S)N/N=C/c1ccccn1 = 29

TGI value, target or system HOP-92 NSCLC, for CSc1nsc(S/C=C\C(=O)c2ccc(C)cc2)n1 : 35.1

* * *

So I've got a bunch of compounds here, and I need their log10(TGI) values.
# Test system: HOP-92 NSCLC
# assay protocol: NCI tumour cell line growth inhibition, 48 h
Answers are given as log10 of TGI in µM.

* ClCc1ccc(C2OCCO2)cc1 | 1.58
* COc1cc(/C=C/c2ccc(OC)c(OC)c2OC)cc(OC)c1OC | 1.50
* COc1ccc(C2SCC(=O)N2NC(=O)C(C)Oc2ccc(Cl)cc2Cl)cc1 (stereo not given) | 1.80
* CN(C)CCCc1c2ccccc2nc2ccc(Cl)cc12 | 1.36
* CC1(C)[C@@H](OC(N)=O)C=C[C@]2(CO)[C@H]3CC[C@]4(C)[C@@H](c5ccc(=O)oc5)[C@@H](Cl)C[C@]4(O)C3=CC[C@@H]12 | -1.29

Batch: log10(TGI) for all items listed.
1. CC1CN=C(c2ccc(-c3nc(-c4ccc(C5=NCC(C)N5)cc4)nc(N(C)C)n3)cc2)N1 (stereo not given)
2. Cc1cc2nc(-c3c(N)ncc(C#N)c3-c3ccc(Cl)cc3)[nH]c2cc1C
3. COC(=O)[C@]1(C)CCC[C@@]2(C)[C@@H]3C[C@@H]4[C@H]5C[C@@]3(CC[C@@H]21)C[C@@]45C
4. COC(=O)c1cc(C)ccc1C1CN=NC12Cc1c(C)cc(C)cc1C2=O (stereo not given)

[1.05, 0.72, 1.47, 1.61]

Would you mind listing log10(TGI) for each of the following compounds?
1. Clc1ccc2c(c1)C(N1CCNCC1)=Nc1ccccc1O2
2. Oc1c(CN2CCCC2)cc(CSCc2ccccc2)c2cccnc12
3. CNCCNc1nc2ccccc2c2c(=O)c3cc(F)ccc3sc12
4. COc1cc2cc(C(=O)N3CC(CCl)c4c3cc(NC(=O)C(C)Nc3c([N+](=O)[O-])cc(C(=O)NCCN(C)C)cc3[N+](=O)[O-])c3ccccc43)[nH]c2c(OC)c1OC (stereo not given)

0.45
1.25
0.87
-1.53

* * *

# Tested on: NCI/ADR-RES ovarian
# assay protocol: NCI tumour cell line growth inhibition, 48 h; in the data active = GI50 below about 0.43 µM; inactive = the rest
Answer with one of the outcomes given here: t (active), f (inactive)

• Cc1cc2nc(-c3c(N)ncc(C#N)c3-c3ccc(Cl)cc3)[nH]c2cc1C = f
• Cc1nn(CNc2ccccc2C(F)(F)F)c(=S)n1/N=C/c1ccc(F)cc1 = f
• CCOC(=O)Nc1nc2cc(OCC)ccc2s1 = f
• CC12CC=CCC1CCC1C2CCC2(C)C(c3ccc(=O)oc3)CCC12O (stereo unspecified) = t
• Clc1ccc2c(c1)C(N1CCNCC1)=Nc1ccccc1O2 = f

Look up the recorded call for COC(=O)c1cc(-c2ccc(OC)cc2)[nH]c1N/N=C/c1c(Cl)cccc1Cl in this test.
t

// outcome(item) with item = CCCCN(CC)c1ncnc2ccc(Br)cc12
f

What is the recorded call for this molecule in the test? CCCCCCNC(=O)n1cc(F)c(=O)[nH]c1=O
f

Any idea what this test logged for CNCCNc1nc2ccccc2c2c(=O)c3cc(OC)ccc3sc12 ?
f

Check the results log: what was the call for COc1ccc(NC(=O)n2nc(/C=C\c3ccc(O)c(OC)c3)cc2/C=C\c2ccc(O)c(OC)c2)cc1 ?
f

* * *

# Test system: HCT-15 colon
# assay protocol: NCI tumour cell line growth inhibition, 48 h
measured property: TGI (µM)
Give bare numbers, in µM.

Example entries and their recorded answers appear below.
• CC1CN=C(c2ccc(-c3nc(-c4ccc(C5=NCC(C)N5)cc4)nc(N(C)C)n3)cc2)N1 (stereo not given) = 33.9
• CC1(C)[C@@H](OC(N)=O)C=C[C@]2(CO)[C@H]3CC[C@]4(C)[C@@H](c5ccc(=O)oc5)[C@@H](Cl)C[C@]4(O)C3=CC[C@@H]12 = 0.0258
• CC(/C=C/NNC1=NC(c2ccccc2)C(c2ccccc2)=NN1)Sc1ccccc1N (stereo not given) = 19.8

For the next question, use this compound.
Noted for Cc1ccc(/C=C2/NC(=S)SC2=O)cc1 : its TGI reads 85.6

* * *

# System: SK-MEL-2 melanoma
# assay protocol: NCI tumour cell line growth inhibition, 48 h
measured property: log10 of TGI (log10 of the value in µM)
Give log10 of TGI, with TGI taken in µM.

• Clc1ccc2c(c1)C(N1CCNCC1)=Nc1ccccc1O2 = 0.53

Value sought for every listed compound: log10 of TGI.
1. COc1cc2c3c(ncc2c(OC)c1OC)-c1cc2c(cc1C3)OCO2
2. Oc1c(CN2CCCC2)cc(CSCc2ccccc2)c2cccnc12
3. COc1c(Sc2ccccc2)cc(Sc2ccccc2)c2cccnc12
4. CCN(CC)C1Oc2cc3c(cc2C(c2cc(OC)c(OC)c(OC)c2)C1C)OCO3 (stereo unspecified)
5. CC(C)(C)n1cc(-c2ccnc(NCCCNS(=O)(=O)c3ccc(Br)cc3)c2)c(-c2cccc(O)c2)n1

1: 1.66; 2: 0.86; 3: 1.63; 4: 1.07; 5: 0.63

* * *

# Tested on: SF-539 CNS
# assay protocol: NCI tumour cell line growth inhibition, 48 h
Could you please report measured TGI for the items listed next?

Worked set:
• Nc1cc2[nH]cnc2c(=O)[nH]1 = > 234 µM
• Cc1c(C(=O)CC(=O)C(=O)Nc2cc(Cl)ccc2Cl)[n+](=O)c2ccccc2n1[O-] = > 100 µM
• CC1=NOC(=O)C1N=Nc1ccc(Br)c(C)c1 (stereo unspecified) = 44.6 µM
• O=C(O)c1cccc(/C=C/c2ccccc2)c1 = > 100 µM
• Cn1c(=O)n(CC2CS2)c2ccccc21 (stereo unspecified) = > 100 µM

Entry COc1ccc([C@@H](O)c2cc(-c3ncnc4cc(N5CCOCC5)ccc34)c(F)cc2Cl)nn1 ; TGI = 12.7 µM

* * *

# System: HCT-15 colon
# assay protocol: NCI tumour cell line growth inhibition, 48 h; in the data active = GI50 below about 0.43 µM; inactive = the rest
Answer with one of the outcomes 1 (yes) for active, 0 (no) for inactive

Solved entries (count: 4):
- Clc1ccc2c(c1)C(N1CCNCC1)=Nc1ccccc1O2: 0 (no)
- CCCCN(CCCC)CCc1c(C)cc(C)c(CCN(CCCC)CCCC)c1O: 0 (no)
- COC(=O)c1ccc2c(c1)C(=O)c1c-2n(CCCN)c(=O)c2cc(OC)c(OC)cc12: 0 (no)
- CC[C@@]12C=CCN3CC[C@]4(c5cc(NC(=O)COc6cc(OCC(=O)Nc7cc8c(cc7OC)N(C)[C@H]7[C@@](O)(C(=O)OC)[C@H](OC(C)=O)[C@]9(CC)C=CCN%10CC[C@]87[C@@H]%109)cc7oc(-c8ccccc8)cc(=O)c67)c(OC)cc5N(C)[C@@H]4[C@](O)(C(=O)OC)[C@H]1OC(C)=O)[C@H]32: 0 (no)

Please share the test call associated with CCCCCCNC(=O)n1cc(F)c(=O)[nH]c1=O .
0 (no)

Which outcome was assigned to C/C(=N\NC(=S)N1CCN(c2ccccn2)CC1)c1nccs1 in this test?
1 (yes)

Called result for COc1cc2c3c(ncc2c(OC)c1OC)-c1cc2c(cc1C3)OCO2
0 (no)

What did this assay record as the result for COc1cc(/C=C2\CC3C4CC=C5C[C@@H](O)CC[C@]5(C)C4CC[C@]3(C)C2=O)ccc1OCCCn1ccnc1 (stereo not given in full) ?
0 (no)

Per the records of this test, what outcome belongs to C[C@]12CC[C@@H](OC(=O)N(CCCl)N=O)C[C@@H]1CC[C@@H]1[C@@H]2CC[C@]2(C)C(=O)CC[C@@H]12 ?
0 (no)

Recorded test outcome, item CCOC(=O)c1c2c(n(Cc3ccccc3)c1C)-c1nc(Cc3ccccc3)[nH]c1C(=O)C2=O
0 (no)
